Assay Method Text: protein stability index of a GFP-peptide fusion (yeast GPS) (PSI 1-4); higher = more stable; sorted into four equal gates, so the index is relative within each strain
Stated Conditions: doa10∆
Readout Type: protein stability index
Give the figure by itself; no unit, no explanation.

Example entries begin here.
Primary Sequence: ELFDILSTSEDVSIEEL [IRR1]
protein stability index: 2.66
//
Primary Sequence: KGVLLYGPPGTGKTLLA [RPT4]
protein stability index: 2.51
//
Primary Sequence: KIESEDDYILSGESVMD [SRB4]
protein stability index: 3.4
//
Primary Sequence: LAANYLNIKPLLDAGCK [SKP1]
protein stability index: 1.83
//
Primary Sequence: IKETKENDEEFYKNKYS [RPN2]
protein stability index: 1.34

Q: I'd like to know its protein stability index. The sequence in question is QEPELSLDQGDAEEDSQ [SMC4]
A: 3.45

Q: Requested field: protein stability index. Item: IETVDDKLKDIVGQTSR [ITC1]
A: 3.25

Q: What measured protein stability index goes with YQVDEDVKSSLSKVFSD [YJL039C/NUP192] ?
A: 3.23

Q: Tell me the measured protein stability index of VLNCLRTMYFILDGQDV [YJR042W/NUP85] , please.
A: 1.87

Q: I have this sequence here, SHTGLVRKYDLNICRQC [RPS29B] , and I need its recorded protein stability index.
A: 2.18

Q: # lookup: protein stability index of ATPPLKRFKDMEYLSGG [SMC1]
A: 2.93

Q: For LLGPTLEDHTPPEDKPN [QCR10] , what is its reported protein stability index?
A: 2.5

Q: Would you kindly share the measured protein stability index for ETNGYDPFSIYGFSNKE [SNF5] ?
A: 1.64

Q: Would you kindly share the measured protein stability index for VIELPLKNPEIFQRVGI [RPT4] ?
A: 2.17

###

Assay Method Text: protein stability index of a GFP-peptide fusion (yeast GPS) (PSI 1-4); higher = more stable; sorted into four equal gates, so the index is relative within each strain
Stated Conditions: doa10∆
Property: protein stability index; scope: individual sequences
// return a plain number; no unit text

Please review the following examples before continuing.
Primary Sequence: HDELDMNECIADQDMED [ESC2]
Readout Type: protein stability index
Experimental Value: 3.22
--
Primary Sequence: DTFLPPPPPPPSNFEIN [PRP8]
Readout Type: protein stability index
Experimental Value: 2.6
--
Primary Sequence: VFFDDDPLYDITKVPAL [REC8]
Readout Type: protein stability index
Experimental Value: 2.47

Q: Given the entry AGKQLEDGRTLSDYNIQ [RPS31] , report its measured protein stability index.
A: 2.81

Q: Entry DWFTYSYFYRRIHVNPS [BRR2] : reported protein stability index = ?
A: 1.86

Q: Any idea what its protein stability index is? The sequence is NLDNLQKVSQLESADKQ [POP4]
A: 3.06

Q: Recorded protein stability index of LNYGNICEPKETLSIFT [YJL039C/NUP192] , please.
A: 2.02

Q: Reported protein stability index for WRSKRIEQLFPVRPVRV [RPC53] : what is it?
A: 3.25

Q: Data request, read-out protein stability index, for EIYRISFQLSKIRRAAR [RPS9A]
A: 1.95

###

Assay Method Text: protein stability index of a GFP-peptide fusion (yeast GPS) (PSI 1-4); higher = more stable; sorted into four equal gates, so the index is relative within each strain
Stated Conditions: doa10∆
Readout Type: protein stability index
Please reply with the number alone, leaving off any unit.

These recorded examples may help you get a feel for the data.
Primary Sequence: CLTMFEDRNESVNIAFA [ECM29]
Readout Type: protein stability index
Experimental Value: 2.42
--
Primary Sequence: TVTSLDVVYALKRQGRT [HHF1]
Readout Type: protein stability index
Experimental Value: 3.55
--
Primary Sequence: QQLQVLARYLKMDLDNG [FAS2]
Readout Type: protein stability index
Experimental Value: 1.9
--
Primary Sequence: QYSLERNSPFWWTNSHH [PRP8]
Readout Type: protein stability index
Experimental Value: 2.56
--
Primary Sequence: LQEAIDFAQKEINGDDD [PRE10]
Readout Type: protein stability index
Experimental Value: 2.96

Q: So what does the record say about protein stability index for MEWPKDMLKYKEDEPVV [ITC1] ?
A: 2.75

Q: Return reported protein stability index; argument: KLYKKIAKFERSEEEVT [YIL149C/MLP2]
A: 3.25

Q: Give the measured protein stability index of SEVGNCSGSGMGGVSAL [FAS2] .
A: 3.15

Q: Value lookup for protein stability index; key = NHFSLSYKDSGLWGFST [COR1]
A: 2.96

Q: Which protein stability index is listed for LSLQRANVEILAVEDKP [CSL4] ?
A: 1.35

Q: I'd like to know its protein stability index. The sequence in question is YQELFIQPKNSDDQQEA [YML103C/NUP188]
A: 2.68

Q: Which protein stability index is reported for this sequence? ENISLAEFILKNRSTIF [BRR2]
A: 2.77
